- Tested on: SK-MEL-5
- test_details: Cytotoxicity against human SK-MEL-5 cells assessed as effect on cell growth at 10 uM incubated for 48 hrs by sulforhodamine B assay
- Format: cell-based
- condition_info: sk-mel-5, 48 h
property: Activity

Recorded results for 5 compounds are shown here.
COc1cc(CNC(=O)[C@@H]2CCC(=O)N2)cc(OC)c1OC
Non-Toxic
O=C(NCc1ccc(Cl)cc1Cl)[C@@H]1CCC(=O)N1C(c1ccc(Cl)cc1)c1ccc(Cl)cc1
Non-Toxic
COc1ccc(CNC(=O)[C@@H]2CCC(=O)N2Cc2ccc(Cl)cc2Cl)c(OC)c1
Non-Toxic
CN(C)/C=C1\C[C@H]2C(=O)N(/C(=C/N(C)C)c3ccncc3)C(N(C)C)N2C1=O (stereo not given in full)
Non-Toxic
CN1C(=O)CC[C@H]1C(=O)NCc1cc(C(F)(F)F)ccc1Cl
Non-Toxic

*Q* Look at this compound and give its reported Activity. COc1ccccc1CN1C(=O)[C@@H]2C/C(=C\N(C)C)C(=O)N2C1N(C)C (stereo not given in full)
*A* Non-Toxic

*Q* Follow-up entry: CN(C)/C=C1\C[C@H]2C(=O)N(Cc3ccccc3Cl)C(N(C)C)N2C1=O (stereo not given in full)
*A* Non-Toxic

*Q* Follow-up entry: O=C(NCc1ccccc1Cl)[C@@H]1CCC(=O)N1Cc1ccccc1
*A* Non-Toxic

*Q* Follow-up entry: CN1C(=O)CC[C@H]1C(=O)NCc1cccc(C(F)(F)F)c1Cl [GSK1482160]
*A* Non-Toxic

*Q* Follow-up entry: O=C(NCc1ccc(Cl)cc1Cl)c1ccccn1
*A* Non-Toxic
